From: patent US20040146519A1

# testedTarget: HLA-A*6801 (Homo sapiens, UniProt P04439, A269V/D185E/E176V/E277Q/E87N/F33Y/G231S/I121M/I166T/I218V/L180W/L300P/L318F/N151K/P208A/P217A/Q86R/R169H/T345S)
# testSummary: HLA class I binding assay, purified HLA-A*6801
# settings: Table XXIII, binding affinity
quantityMeasured: IC50 (nM)
Your answer should be a plain number; it is taken to be in nM.

{"structureAsSmiles": "CC(C)[C@H](NC(=O)[C@@H](N)[C@@H](C)O)C(=O)N[C@@H](CO)C(=O)N1CCC[C@H]1C(=O)N[C@@H](CO)C(=O)N[C@@H](Cc1ccc(O)cc1)C(=O)N[C@H](C(=O)N[C@@H](Cc1ccc(O)cc1)C(=O)N[C@@H](Cc1ccc(O)cc1)C(=O)N[C@@H](CCCNC(=N)N)C(=O)O)[C@@H](C)O", "recordedResult": 8.6}
{"structureAsSmiles": "CC(C)C[C@H](NC(=O)[C@H](CC(C)C)NC(=O)[C@@H](NC(=O)[C@H](CC(C)C)NC(=O)[C@@H](NC(=O)[C@@H](N)CCCNC(=N)N)C(C)C)[C@@H](C)O)C(=O)N[C@@H](CO)C(=O)N[C@H](C(=O)N[C@H](C(=O)N[C@@H](CCCCN)C(=O)O)[C@@H](C)O)C(C)C", "recordedResult": 5710}

Now for the molecule whose IC50 we want.
The recorded IC50 for entry CC(C)C[C@H](NC(=O)[C@@H](NC(=O)[C@@H](N)CCCNC(=N)N)C(C)C)C(=O)N[C@H](C(=O)N[C@@H](CC(C)C)C(=O)N[C@@H](Cc1ccccc1)C(=O)N[C@@H](CC(N)=O)C(=O)N[C@H](C(=O)N[C@H](C(=O)N[C@@H](CCCCN)C(=O)O)[C@@H](C)O)C(C)C)[C@@H](C)O equals 2350

* * *

# testedTarget: HLA-A*3301 (Homo sapiens, UniProt P04439, A270S/D185E/E176V/E277Q/E87N/F33T/G231S/H175R/I121M/I218V/I322F/K168Q/K210R/L300P/L318F/M331R/P217A/Q86R/Q94H/R138Q/T323A/T345S/T97I/V358M/Y195H)
# testSummary: HLA class I binding assay, purified HLA-A*3301
# settings: Table XXIII, binding affinity
quantityMeasured: pIC50
// pIC50 here means minus log10 of the molar concentration (mol/L)

{"structureAsSmiles": "CC[C@H](C)[C@H](N)C(=O)N[C@H](C(=O)N1CCC[C@H]1C(=O)N[C@@H](CO)C(=O)N[C@@H](Cc1ccc(O)cc1)C(=O)N[C@H](C(=O)N[C@@H](Cc1ccc(O)cc1)C(=O)N[C@@H](Cc1ccc(O)cc1)C(=O)N[C@@H](CCCCN)C(=O)O)[C@@H](C)O)C(C)C", "pIC50": 5.36}

As a next step, examine the compound that follows.
Short answer for CC(C)[C@H](NC(=O)[C@@H](N)[C@@H](C)O)C(=O)N[C@@H](CO)C(=O)N1CCC[C@H]1C(=O)N[C@@H](CO)C(=O)N[C@@H](Cc1ccc(O)cc1)C(=O)N[C@H](C(=O)N[C@@H](Cc1ccc(O)cc1)C(=O)N[C@@H](Cc1ccc(O)cc1)C(=O)N[C@@H](CCCNC(=N)N)C(=O)O)[C@@H](C)O : pIC50 was 6.58

* * *

# testedTarget: HLA-A*6801 (Homo sapiens, UniProt P04439, A269V/D185E/E176V/E277Q/E87N/F33Y/G231S/I121M/I166T/I218V/L180W/L300P/L318F/N151K/P208A/P217A/Q86R/R169H/T345S)
# testSummary: HLA class I binding assay, purified HLA-A*6801
# settings: Table XXIII, binding affinity
quantityMeasured: pIC50
Please report pIC50 as the negative decimal logarithm of the molar concentration, giving only the number.

Observe how each entry below is paired with its result.
{"compound": "CC(C)[C@H](NC(=O)[C@@H](N)[C@@H](C)O)C(=O)N[C@@H](CO)C(=O)N1CCC[C@H]1C(=O)N[C@@H](CO)C(=O)N[C@@H](Cc1ccc(O)cc1)C(=O)N[C@H](C(=O)N[C@@H](Cc1ccc(O)cc1)C(=O)N[C@@H](Cc1ccc(O)cc1)C(=O)N[C@@H](CCCCN)C(=O)O)[C@@H](C)O [CEA.419.V2K10]", "recordedResult": 8.17}
{"compound": "CC(C)C[C@H](NC(=O)[C@H](CC(N)=O)NC(=O)[C@H](CO)NC(=O)[C@@H](NC(=O)[C@@H](N)Cc1ccccc1)C(C)C)C(=O)N[C@@H](C)C(=O)N[C@H](C(=O)NCC(=O)N[C@@H](CCCCN)C(=O)O)[C@@H](C)O [CEA.656.K9]", "recordedResult": 8.28}

The value of pIC50 measured for the compound CC[C@H](C)[C@H](N)C(=O)N[C@H](C(=O)N1CCC[C@H]1C(=O)N[C@@H](CO)C(=O)N[C@@H](Cc1ccc(O)cc1)C(=O)N[C@H](C(=O)N[C@@H](Cc1ccc(O)cc1)C(=O)N[C@@H](Cc1ccc(O)cc1)C(=O)N[C@@H](CCCCN)C(=O)O)[C@@H](C)O)C(C)C [CEA.420.V2K9] turned out to be 7.66

* * *

# testedTarget: HLA-A*3301 (Homo sapiens, UniProt P04439, A270S/D185E/E176V/E277Q/E87N/F33T/G231S/H175R/I121M/I218V/I322F/K168Q/K210R/L300P/L318F/M331R/P217A/Q86R/Q94H/R138Q/T323A/T345S/T97I/V358M/Y195H)
# testSummary: HLA class I binding assay, purified HLA-A*3301
# settings: Table XXIII, binding affinity
pIC50: −log10 of the molar value.
quantityMeasured: pIC50

{"structureAsSmiles": "CC(C)C[C@H](NC(=O)[C@H](CC(C)C)NC(=O)[C@@H](NC(=O)[C@H](CC(C)C)NC(=O)[C@@H](NC(=O)[C@@H](N)CCCNC(=N)N)C(C)C)[C@@H](C)O)C(=O)N[C@@H](CO)C(=O)N[C@H](C(=O)N[C@H](C(=O)N[C@@H](CCCCN)C(=O)O)[C@@H](C)O)C(C)C", "pIC50": "< 5.00"}

Next compound, please.
response.value for CC(C)[C@H](NC(=O)[C@@H](N)[C@@H](C)O)C(=O)N[C@@H](CO)C(=O)N1CCC[C@H]1C(=O)N[C@@H](CO)C(=O)N[C@@H](Cc1ccc(O)cc1)C(=O)N[C@H](C(=O)N[C@@H](Cc1ccc(O)cc1)C(=O)N[C@@H](Cc1ccc(O)cc1)C(=O)N[C@@H](CCCCN)C(=O)O)[C@@H](C)O (field: pIC50) = < 5.00

* * *

# testedTarget: HLA-A*1101 (Homo sapiens, UniProt P04439, A114D/D185E/E176A/F33Y/L180Q/S129P/T187R)
# testSummary: HLA class I binding assay, purified HLA-A*1101
# settings: Table XXIII, binding affinity
Where no end group is shown, it is not given here.
quantityMeasured: IC50 (nM)
Quick note: give the figure in nM, leave out the unit.

IC50 measured on TVSPLNTSYK [CEA.241.V2K10] = 6

* * *

# testedTarget: HLA-A*0203 (Homo sapiens, UniProt P04439, A173T/D140Y/D185E/D98H/E277Q/G131W/G231S/I119V/I121R/I166T/I218V/L180W/L300P/L318F/N151K/N90K/P208A/P217A/Q86G/Q94H/R138H/R169H/T345S)
# testSummary: HLA class I binding assay, purified HLA-A*0203
# settings: Table XXII, binding affinity
quantityMeasured: IC50 (nM)
Your answer is read as nM, so omit the unit and give the number.

Example cases with answers are listed next.
{"structureAsSmiles": "CC[C@H](C)[C@H](N)C(=O)N[C@@H](CC(C)C)C(=O)N[C@H](C(=O)NCC(=O)N[C@H](C(=O)N[C@@H](CC(C)C)C(=O)N[C@H](C(=O)NCC(=O)N[C@H](C(=O)O)C(C)C)C(C)C)C(C)C)[C@@H](C)CC", "quantityMeasured": "IC50", "recordedResult": 3.2}
{"structureAsSmiles": "CC[C@H](C)[C@H](NC(=O)CN)C(=O)N[C@@H](CCSC)C(=O)N[C@H](C(=O)NCC(=O)N[C@H](C(=O)N[C@@H](CC(C)C)C(=O)N[C@H](C(=O)NCC(=O)N[C@H](C(=O)O)C(C)C)C(C)C)C(C)C)[C@@H](C)CC", "quantityMeasured": "IC50", "recordedResult": 31}
{"structureAsSmiles": "CC[C@H](C)[C@H](NC(=O)[C@H](CC(C)C)NC(=O)[C@@H](N)CCC(N)=O)C(=O)NCC(=O)N[C@@H](Cc1ccc(O)cc1)C(=O)N[C@H](C(=O)N[C@H](C(=O)NCC(=O)N[C@H](C(=O)O)C(C)C)[C@@H](C)CC)C(C)C", "quantityMeasured": "IC50", "recordedResult": 2.3}

Would you kindly look at the next entry?
Kindly note the recorded IC50 for CC[C@H](C)[C@H](NC(=O)CNC(=O)[C@@H](NC(=O)[C@H](CC(C)C)NC(=O)[C@H](C)N)C(C)C)C(=O)N[C@@H](CCSC)C(=O)N[C@H](C(=O)NCC(=O)N[C@H](C(=O)O)C(C)C)[C@@H](C)CC , which is 31
